Source: patent US12502386B2

Test system: Con-NCI-H82 cell
Assay: CellTiter-Glo cell viability, Con-NCI-H82 cell (empty-vector control)
Assay type: cell-based, human
Conditions: Homo sapiens, NCI-H82, NCI-H82 transfected with empty virus vector (control), intracellular ATP, read-out: inhibitory effect on Con-NCI-H82 (IC50)
Quantity name: IC50 (µM)
Express your answer in µM, writing the number without its unit.

{"Molecule": "COc1ccc2c(c1OCCCCOc1ccccc1)C(C)N1CCc3cc4c(cc3C1=C2)OCO4 (centres unmarked) [AB31881]", "Recorded measurement": 2.01}
{"Molecule": "[2H]C1([2H])c2c(ccc(OC)c2OC)C=C2c3cc4c(cc3CCN21)OCO4 [AB36434]", "Recorded measurement": 1.02}
{"Molecule": "CCCC1=C2c3cc4c(cc3CCN2C(C2CCCC2)c2c1ccc1c2OCO1)OCO4 (centres unmarked) [AB36432]", "Recorded measurement": 1.26}
{"Molecule": "COc1ccc2c(c1OC/C=C(\\C)CCC=C(C)C)C(C)N1CCc3cc4c(cc3C1=C2)OCO4 (centres unmarked) [AB35402]", "Recorded measurement": 0.88}
{"Molecule": "CC1c2c(ccc3c2OCO3)C(CCCc2ccccc2)=C2c3cc4c(cc3CCN21)OCO4 (centres unmarked) [AB35427]", "Recorded measurement": 0.56}

Entry COc1ccc2c(c1OCCCF)CN1CCc3cc4c(cc3C1=C2)OCO4 [AB35590] : reported IC50 = ?
1.52

How about this molecule: CCCCCCC1c2c(ccc(OC)c2OC)C=C2c3cc4c(cc3CCN21)OCCO4 (centres unmarked) [AB31880]
0.99

Okay, and COc1ccc2c(c1OC)C(C(Cl)(Cl)Cl)N1CCc3cc4c(cc3C1=C2CCCCCCCl)OCO4 (centres unmarked) [AB35524] ?
1.34

---

System: sh-DNMT1 NCI-H82 cell
Test: CellTiter-Glo cell viability, sh-DNMT1 NCI-H82 cell (DNMT1 knocked down)
Assay type: cell-based, human
Settings: Homo sapiens, NCI-H82, NCI-H82 with DNMT1 knocked down by shRNA, intracellular ATP, read-out: inhibitory effect on sh-DNMT1 NCI-H82 (IC50)
Quantity name: log10(IC50) (log10 of the value in µM)
Scale: log10; quantity: IC50; unit before log: µM

Check out these entries, answers already filled in.
{"Compound": "COc1ccc2c(c1OC)C(C1CCC1)N1CCc3cc4c(cc3C1=C2)OCO4 (centres unmarked)", "Quantity name": "log10(IC50)", "Recorded measurement": 0.85}
{"Compound": "COc1ccc2c(c1N1CCC(NC(=O)OC(C)(C)C)CC1)C(C(Cl)(Cl)Cl)N1CCc3cc4c(cc3C1=C2)OCO4 (centres unmarked)", "Quantity name": "log10(IC50)", "Recorded measurement": 0.95}
{"Compound": "COc1ccc2c(c1N1CCC(Cl)CC1)CN1CCc3cc4c(cc3C1=C2)OCCO4", "Quantity name": "log10(IC50)", "Recorded measurement": 0.66}
{"Compound": "COc1ccc2c(c1OCc1ccccc1-c1ccccc1)C(C(Cl)(Cl)Cl)N1CCc3cc4c(cc3C1=C2)OCO4 (centres unmarked)", "Quantity name": "log10(IC50)", "Recorded measurement": 0.60}
{"Compound": "COc1ccc2c(c1NCCc1ccccc1)C(C1CCCC1)N1CCc3cc4c(cc3C1=C2)OCO4 (centres unmarked)", "Quantity name": "log10(IC50)", "Recorded measurement": 0.37}

Entry COc1ccc2c(c1OCCNC(=O)OC(C)(C)C)C(C(Cl)(Cl)Cl)N1CCc3cc4c(cc3C1=C2)OCO4 (centres unmarked) has what log10(IC50)?
0.80

C1=C2c3cc4c(cc3CCN2C(C2CCCC2)c2cc3c(cc21)OCO3)OCO4 (centres unmarked) ?
1.19
